Values compiled from paper PMC1920236.

target.of.assay: T1, IRF-3 5D (UniProt Q14653 1-427, S396D;S398D;S402D;T404D;S405D)
T1 sequence: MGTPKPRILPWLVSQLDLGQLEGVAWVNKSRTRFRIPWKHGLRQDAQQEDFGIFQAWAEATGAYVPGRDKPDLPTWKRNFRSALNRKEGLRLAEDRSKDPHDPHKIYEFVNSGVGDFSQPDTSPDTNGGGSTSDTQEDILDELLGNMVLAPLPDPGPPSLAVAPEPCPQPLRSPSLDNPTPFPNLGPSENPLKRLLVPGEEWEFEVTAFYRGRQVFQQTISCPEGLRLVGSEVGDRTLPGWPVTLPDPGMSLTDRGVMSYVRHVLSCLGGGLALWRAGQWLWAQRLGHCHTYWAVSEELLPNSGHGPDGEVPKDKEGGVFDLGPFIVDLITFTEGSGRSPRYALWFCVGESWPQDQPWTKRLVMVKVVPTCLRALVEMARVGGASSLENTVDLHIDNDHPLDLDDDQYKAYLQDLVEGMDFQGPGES
procedure.details: fluorescence anisotropy
observation.type: pKd
# log scale: pKd equals minus log10 of the concentration in mol/L

Q: Bench note: what pKd did PRDIII-PRDI 26-bp (dsDNA) DNA 1: GCGAACTGAAAGGGAGAAGTGAAAGT DNA 2: ACTTTCACTTCTCCCTTTCAGTTCGC show?
Result: 8.24
